- Measured Target: Serine hydrolase RBBP9 (Homo sapiens, UniProt O75884)
- Procedure Details: Displacement of fluorophosphate-rhodamine from RBBP9 transfected in human HEK293T cells proteomes at 20 uM after 30 mins by SDS-PAGE gel fluorescence assay
- Assay type: cell-based
- Protocol Conditions: HEK-293T
- Sequence (O75884 whole entry, looked up): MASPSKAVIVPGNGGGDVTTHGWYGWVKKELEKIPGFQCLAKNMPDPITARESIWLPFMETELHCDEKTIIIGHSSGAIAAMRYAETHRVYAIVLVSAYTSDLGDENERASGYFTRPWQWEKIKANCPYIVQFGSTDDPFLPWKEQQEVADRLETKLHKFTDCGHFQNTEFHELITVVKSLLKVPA
Measure: inhibition
Please don't drop the unit; write it after the number.

# annotated cases, reported inhibition shown
| Chemical String | inhibition |
| --- | --- |
| C/C(=N\OC(=O)c1cc(F)ccc1F)c1nccs1 | 66% |
| C/C(=N\OC(=O)c1c(-c2ccccc2Cl)noc1C)c1nccs1 | 17% |
| COc1ccc(C(=O)ON=C2C=C(C)C(=O)C(C)=C2)cc1 | 93% |
| C/C(=N\OC(=O)c1ccc(I)cc1)c1nccs1 | 66% |
| C/C(=N\OC(=O)c1cccc(C(F)(F)F)c1)c1nccs1 | 46% |

# context switch: different compound, same inhibition
Q: Returns the measured inhibition for the input compound. Input: C/C(=N\OC(=O)c1ccc(F)cc1)c1nccs1
Result: 76%

* * *

- Measured Target: UniProt:O75884
- Procedure Details: Displacement of fluorophosphate-rhodamine from RBBP9 transfected in human HEK293T cells proteomes after 30 mins by SDS-PAGE gel fluorescence assay
- Type: cell-based, HEK-293T
- Protocol Conditions: hek-293t
- Sequence (O75884 whole entry): as the sequence (O75884 whole entry, looked up) above
Measure: IC50 (µM)
Form entry: value (µM) — number only.

Q: Returns the measured IC50 for the input compound. Input: CC[C@H]1CN2CCc3cc(OC)c(OC)cc3[C@@H]2C[C@@H]1CC1NCCc2cc(OC)c(OC)cc21 (single isomer, unassigned)
Result: 7.8

* * *

- Measured Target: Serine hydrolase RBBP9 (Homo sapiens)
- Procedure Details: Displacement of fluorophosphate-rhodamine from RBBP9 transfected in human HEK293T cells proteomes at 20 uM after 30 mins by SDS-PAGE gel fluorescence assay
- Type: cell-based
- Protocol Conditions: HEK-293T
Overview of reported inhibition across a group of compounds:
Form entry: value (%) — number only.

# annotated cases, reported inhibition shown
| Chemical String | Measured Target | inhibition [%] |
| --- | --- | --- |
| C#CCCC(=O)O/N=C(\C)c1nccs1 | Serine hydrolase RBBP9 (Homo sapiens) | 42 |
| CC1=CC(=NOC(=O)/C=C/c2ccccc2)C=C(C)C1=O | Serine hydrolase RBBP9 (Homo sapiens) | 78 |
| C/C(=N\OC(=O)c1ccc(-c2ccccc2)cc1)c1nccs1 | Serine hydrolase RBBP9 (Homo sapiens) | 4 |
| COc1ccc(C(=O)ON=C2C(C)=CC(=O)C=C2C)cc1 | Serine hydrolase RBBP9 (Homo sapiens) | 48 |

Q: Please tell me: inhibition of C/C(=N\OC(=O)/C=C/c1ccccc1)c1nccs1 , system Serine hydrolase RBBP9 (Homo sapiens)?
Result: 42

Q: Please tell me: inhibition of C/C(=N\OC(=O)C1CCCCC1)c1nccs1 , system Serine hydrolase RBBP9 (Homo sapiens)?
Result: 91

Q: Please tell me: inhibition of C/C(=N\OC(=O)c1ccccc1F)c1nccs1 , system Serine hydrolase RBBP9 (Homo sapiens)?
Result: 64

Q: Please tell me: inhibition of COc1ccc(C(=O)O/N=C(\C)c2nccs2)cc1 , system Serine hydrolase RBBP9 (Homo sapiens)?
Result: 60

Q: Please tell me: inhibition of C/C(=N\OC(=O)c1ccc(Cl)cc1)c1nccs1 , system Serine hydrolase RBBP9 (Homo sapiens)?
Result: 78

Q: Please tell me: inhibition of C/C(=N\OC(=O)c1c(-c2c(F)cccc2Cl)noc1C)c1nccs1 , system Serine hydrolase RBBP9 (Homo sapiens)?
Result: 14

Q: Please tell me: inhibition of COc1ccc(C(=O)O/N=C2/C=C(C)C(=O)C=C2C)cc1 , system Serine hydrolase RBBP9 (Homo sapiens)?
Result: 76

Q: Please tell me: inhibition of C/C(=N\OC(=O)c1ccccc1)c1nccs1 , system Serine hydrolase RBBP9 (Homo sapiens)?
Result: 62
